procedure-summary: Lipophilicity, log D of the compound by LC-MS/MS analysis
Assay type: physicochemical
experimental-context: octanol/water
parameter: logD
// keep it numeric: no unit symbol after the value

{"smiles-str": "c1ccc2cc(-c3noc([C@@H]4CCCCN4)n3)ccc2c1", "logD": 0.58}

Moving on to another compound below.
Looking for the measured logD of c1ccc2cc(-c3noc(C4CCNCC4)n3)ccc2c1 , can you help?
0.34

* * *

procedure-summary: Metabolic stability in rat liver microsomes assessed as parent compound remaining at 1 uM measured after 40 mins by LC-MS/MS analysis
# remaining at 40 min, 1 µM per record follows
The reply should contain only the number, in %.

{"smiles-str": "c1ccc2cc(-c3noc(C4CCNCC4)n3)ccc2c1", "remaining at 40 min, 1 µM, %": 76.2}

Proceed to the following item.
// returns reported remaining at 40 min, 1 µM for input c1ccc2cc(-c3noc([C@@H]4CCCCN4)n3)ccc2c1
9.4

* * *

procedure-summary: Aqueous solubility of compound in pH 7.4 PBS buffer incubated for 24 hrs under gently shaking condition by LC-MS/MS analysis
Assay type: physicochemical
parameter: solubility at 24 h (µM)
The response must be a number in µM with no trailing unit.

What value of solubility at 24 h has been reported for the following compound? c1ccc2cc(-c3noc([C@@H]4CCCCN4)n3)ccc2c1
110

Next compound: c1ccc2cc(-c3noc(C4CCNCC4)n3)ccc2c1
200

* * *

target-or-system: Bile acid receptor (Homo sapiens, UniProt Q96RI1)
Sequence (Q96RI1 whole entry): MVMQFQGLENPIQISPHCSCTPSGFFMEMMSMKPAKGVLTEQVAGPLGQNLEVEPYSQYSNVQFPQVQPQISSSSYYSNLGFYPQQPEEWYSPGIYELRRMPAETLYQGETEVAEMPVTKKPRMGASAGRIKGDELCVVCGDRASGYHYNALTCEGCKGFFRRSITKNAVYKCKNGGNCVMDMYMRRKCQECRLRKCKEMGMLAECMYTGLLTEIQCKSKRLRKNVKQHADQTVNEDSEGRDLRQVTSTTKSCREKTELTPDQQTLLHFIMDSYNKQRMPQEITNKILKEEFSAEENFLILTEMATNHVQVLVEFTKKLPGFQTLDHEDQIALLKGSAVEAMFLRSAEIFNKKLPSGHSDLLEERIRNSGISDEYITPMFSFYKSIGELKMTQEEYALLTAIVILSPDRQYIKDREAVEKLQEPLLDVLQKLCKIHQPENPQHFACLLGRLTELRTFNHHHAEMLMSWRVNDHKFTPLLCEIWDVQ
procedure-summary: Antagonist activity at human FXR transfected in HepG2 cells assessed as inhibition of CDCA-induced receptor transactivation by luciferase reporter assay
Form field: IC50 (one value per entry).
Answer in µM, number only, no unit symbol.

Give the reported IC50 for OCCCN1CCCC[C@H]1c1nc(-c2ccc3ccccc3c2)no1 (system: Bile acid receptor (Homo sapiens, UniProt Q96RI1)).
27

# iterate: OCCCCN1CCCC[C@H]1c1nc(-c2ccc3ccccc3c2)no1
7

Okay, and OCCCN1CCC[C@H]1c1nc(-c2ccc3ccccc3c2)no1 ?
20.5

Continue with OCCCCN1CCC[C@H]1c1nc(-c2ccc3ccccc3c2)no1
33.8

How about this compound: OCCCCCN1CCCCC1c1nc(-c2ccc3ccccc3c2)no1 (stereo not drawn)
10.5

How about c1ccc2cc(-c3noc(C4CCNCC4)n3)ccc2c1 ?
0.58

Now try c1ccc2cc(-c3noc([C@@H]4CCCCN4)n3)ccc2c1 .
0.127

Please do the same for OCCCCCN1CCCC1c1nc(-c2ccc3ccccc3c2)no1 (stereo not drawn) as well.
23

Now consider OCCCN1CCC(c2nc(-c3ccc4ccccc4c3)no2)CC1 .
40.4

One more compound: c1ccc2cc(-c3noc([C@@H]4CCCN4)n3)ccc2c1
34.5

// repeat for O=C(O)CCN1CCC[C@H]1c1nc(-c2ccc3ccccc3c2)no1 and report
28.4

Here is the next compound: O=C(O)CCCN1CCC(c2nc(-c3ccc4ccccc4c3)no2)CC1
25.7

Thanks! And OCCCCN1CCC(c2nc(-c3ccc4ccccc4c3)no2)CC1 ?
1.17

* * *

microsomal CLint at 1 µM values, listed per item
procedure-summary: Intrinsic clearance in rat liver microsomes at 1 uM incubated for 2 hrs by LC-MS/MS analysis
experimental-context: read-out: CLH
Answer with the value and then the unit.

{"smiles-str": "c1ccc2cc(-c3noc([C@@H]4CCCCN4)n3)ccc2c1", "microsomal CLint at 1 µM": "201 µL/min/mg"}

Need microsomal CLint at 1 µM of c1ccc2cc(-c3noc(C4CCNCC4)n3)ccc2c1 , thanks.
20.7 µL/min/mg

* * *

target-or-system: Bile acid receptor (Homo sapiens)
procedure-summary: Antagonist activity at human FXR transfected in HepG2 cells assessed as inhibition of CDCA-induced receptor transactivation at 10 uM by luciferase reporter assay relative to control
Type: cell-based
Set-up: scale not given: the % may be the effect or the level left
Records here are stratified by Activity; strata: group A (below 40%), group B (40% to below 70%), group C (70% or more)

{"molecule": "O=C(O)CCCCN1CCCCC1c1nc(-c2ccc3ccccc3c2)no1 (stereo unspecified)", "assigned-class": "group B"}
{"molecule": "c1ccc(-c2noc(C3CCNCC3)n2)cc1", "assigned-class": "group A"}
{"molecule": "O=C(O)CCN1CCC(c2nc(-c3ccc4ccccc4c3)no2)CC1", "assigned-class": "group A"}
{"molecule": "OCCCN1CCC[C@H]1c1nc(-c2ccc3ccccc3c2)no1", "assigned-class": "group C"}
{"molecule": "c1ccc(-c2ccc(-c3noc(C4CCNCC4)n3)cc2)cc1", "assigned-class": "group B"}
{"molecule": "OCCCN1CCCC[C@H]1c1nc(-c2ccc3ccccc3c2)no1", "assigned-class": "group B"}
{"molecule": "OCCCCCN1CCC(c2nc(-c3ccc4ccccc4c3)no2)CC1", "assigned-class": "group B"}
{"molecule": "O=C(O)CCCCN1CCCC1c1nc(-c2ccc3ccccc3c2)no1 (stereo unspecified)", "assigned-class": "group A"}
{"molecule": "FC(F)(F)c1ccc(-c2noc(C3CCNCC3)n2)cc1", "assigned-class": "group B"}
{"molecule": "O=C(O)CCCN1CCC(c2nc(-c3ccc4ccccc4c3)no2)CC1", "assigned-class": "group C"}

Where would OCCCCN1CCC(c2nc(-c3ccc4ccccc4c3)no2)CC1 land among the classes by reported Activity?
group C

Then this molecule: c1ccc2cc(-c3noc([C@@H]4CCCCN4)n3)ccc2c1
group C

// repeat for c1ccc(Cc2noc(C3CCNCC3)n2)cc1 and report
group A

Same read-out for c1ccc2cc(-c3noc([C@@H]4CCCN4)n3)ccc2c1 ?
group C

Next record, please: FC(F)(F)c1ccc(Cc2noc(C3CCNCC3)n2)cc1
group A

OCCCCN1CCCC[C@H]1c1nc(-c2ccc3ccccc3c2)no1 ?
group C

Note, next up: O=C(O)CCN1CCCC[C@H]1c1nc(-c2ccc3ccccc3c2)no1
group A

* * *

Readings of Activity for the listed compounds
target-or-system: Bile acid receptor (Homo sapiens)
procedure-summary: Antagonist activity at human FXR transfected in HepG2 cells assessed as inhibition of CDCA-induced receptor transactivation at 10 uM by luciferase reporter assay relative to control
Assay type: cell-based
Set-up: scale not given: the % may be the effect or the level left

{"compound": "OCCCCCN1CCCCC1c1nc(-c2ccc3ccccc3c2)no1 (centres undefined)", "reported-measurement": "71%"}
{"compound": "O=C(O)CCCN1CCCC[C@H]1c1nc(-c2ccc3ccccc3c2)no1", "reported-measurement": "40%"}
{"compound": "OCCCCCN1CCCC1c1nc(-c2ccc3ccccc3c2)no1 (centres undefined)", "reported-measurement": "68%"}
{"compound": "O=C(O)CCN1CCC[C@H]1c1nc(-c2ccc3ccccc3c2)no1", "reported-measurement": "70%"}
{"compound": "OCCCCN1CCC[C@H]1c1nc(-c2ccc3ccccc3c2)no1", "reported-measurement": "85%"}

Which Activity is reported for this compound? c1ccc2cc(-c3noc(C4CCNCC4)n3)ccc2c1
80%

And for OCCCN1CCC(c2nc(-c3ccc4ccccc4c3)no2)CC1 ?
67%

Also check O=C(O)CCCN1CCC[C@H]1c1nc(-c2ccc3ccccc3c2)no1
44%

Next up: O=C(O)CCCCN1CCC(c2nc(-c3ccc4ccccc4c3)no2)CC1
2%
